assay: yeast display, Sf9 membrane polyspecificity reagent, FACS + sequencing; frameworks hold sequencing errors
EXPERIMENTAL_ENDPOINT: polyreactivity (PSR sort gate)

Please review the entries below; each comes with its answer.
QVQLLESGGGLVQAGGSLRLSCDASGFTFVAYAMGWYRQAPGKERELVAVISRGGSTYYADSVKGRFTISRDNAKNTVYLQMNSLKPEDTAVYYCAATFIHSYGKFFYWGQGTQVTLSS | low polyreactivity
QVQLVESGGGLVQAGGSLRLSCAASGRTFSGYAMGWYRQAPGKEREFVAVITYSGGSTYYADSVKGRFTMSRVNAKNTVYLQMNSLKPEDTAVYYCNADYVIFYQLVDFDYWGQGTQVTVSS | low polyreactivity
QVQLVESRGGLVQAGGSLRLICAASANNYRYAMGWYRQAPAKEREFVAAISRGGSTFYADSVKGRFTISRDNAKNTVYEQMNRLKPEDSAVFYCDKERYNVYYYSGQGTQVTVSS | high polyreactivity
QVQLVESGGGLVQAGGSLRLSCAASGSTFVSNAMGWSRQAPGKERELVAAITRRGGSTYYADSVKGRFTISRDNAKNTVYLQMNSLKPEDTAVYYCAAYSTLTPAYEYWGQGTQVTVSS | high polyreactivity
QVQLVESGGGLVQAGGSLRLSCAASGITFVYYTMGWYRQAPGKERELVASITWDGRSTYYADSVKGRFTISRDNAKNTVYLQMNSLKPEDTAVYYCNRDRVSGGKYNYWGQGTQVTVSS | low polyreactivity
QVQLVESGGGLVQAGGSLRLSCAASGRTFRHNTMGWYRQAPGKEREFVAVITSSGGSTYYADSVKGRFTISRDNAKNTVYLQMNSLKPEDTAVYYCNAKYHLSRSTYYYWGQGTQVTVSS | high polyreactivity
KVLLVESGGGLVQAGGSLRLSCAASGSIFHGNAMGWYRQAPGKERELVATISSGGSTYYADSVKGLFTISRDNAKNTVDLQMNSLKPEDTAVYYCAAERFWPYKSYYWGQGTQVTVSS | low polyreactivity
QDQLVESVGGLVQAGGSLPLSSAASGLTFKRNAMRWYSQAPGKERELVAAIRYSTDSTNYADSVKGRFTISRDNAKNTVYCQMNSLKPESTAVYYCAKDKQDYEYWGQGTQVTVSS | low polyreactivity

Ask: Which polyreactivity (PSR sort gate) is listed for QVQLVESGGGLVQAGGSVRLSCAASGLIFTIYAMGWYRQAPGKERELVAVITWSGGSTYYADSVKGRFTISRDNAKNTVYLQMYSLKPEDTAVYYCAVEWAYPYWYTYYLEDYWGQGTQVTVSS ?
Reply: low polyreactivity

Ask: What value of measured polyreactivity (PSR sort gate) is listed for QVQLVESGGGLVQAGGSLRLSCAASGSTFGSYTMGWYRQAPGKERELVAAINWSGGNTYYADSVKGRFTISRDNAKNTVYLQINSLKPEDTAVYYCAAAFYIYGVEGDYWGQGTQVTVSS ?
Reply: low polyreactivity

---

test: yeast display, Sf9 membrane polyspecificity reagent, FACS + sequencing; frameworks hold sequencing errors
EXPERIMENTAL_ENDPOINT: polyreactivity (PSR sort gate)

Study these solved cases before continuing.
QVQLVESGGGLVQAGGSLRLSCAASGSTFHLYAMGWSRQAPGKERELVAVITSGDSTSYADSVKGRFTISRDNAKNTVYLQMNSLKPEDTAVYYCAADSYSGYNYWGQGTQVTVSS | low polyreactivity
QVQLVESGGGLVQAGGSLRLSCAASGSIFEYNAMGWYRQAPGKERELVAAITRGGNTYYADSVKGRFTISRDNAKNTVYLQMNSLKPEDTAVYYCAAVQWYGYPYYSWGQGTQVIVSS | low polyreactivity
QVQLVESGGGLVQAGGSLRLSCAASGFIFRYYTMGWYRQAPGKERELVAVITSGGTTYYADSVKGRFTISRDNAKNTVYLQMNSLKPEDTAVYYCAADTFYIYEDVLYVQGDYYWGQGTQVTVSS | low polyreactivity
QVQLVESGGGLVQAGGSLRLSCAATGSTFDRYGMGWYRQAPGKERELVAAINSGDITNYADSVKGRFTISRDNAKNTVYLQMNSLKPEDTAVYYCNAGIRYFVVGRSSYDYWGQGTQVTVSS | low polyreactivity
QVQLVESGGGLVQAGGSLRLSCAASGSTFYANTMGWYRQAPGKERELVAAISRRGGRTYYADSVKGRFTISRDNAKNTVYLQMNSLKPDDTAVYYCARRGYSSRTIKRYNYWGQGTQVTVSS | high polyreactivity

Ask: Returns the measured polyreactivity (PSR sort gate) for the input sequence. Input: QVQLVESGGGLVQAGGSLRLTCAASGSNFWSYDMGWYRQAPGKERELVATITSGDSTYYADSVKGRFTISRDNAKNTVYLQMYSLKPEDTAVYYCAAGTYYRRPYWHRDYDYWGQGTQVTVSS
Reply: low polyreactivity

Ask: Would you mind telling me what polyreactivity (PSR sort gate) value was observed for QVQLVESGGGLVQAGGSLRLSCAASGSIFYAYVMGWYRQAPGKERELVAAIDIGGGTYADSVKGRFTISRDNAKNTVYLQMNMLKPEDTAVYYCAKAGYFSRGVYVYYLDEYDYWGQGSQVTVSS ?
Reply: high polyreactivity

---

test: yeast display, Sf9 membrane polyspecificity reagent, FACS + sequencing; frameworks hold sequencing errors
EXPERIMENTAL_ENDPOINT: polyreactivity (PSR sort gate)

QVQLVESGGGLVQAGGSLRLSCAASGSTFIGNAMGWYRQAPGKERELVAAITSSGGSTYYADSVKGRFTISRDNAKNTVYLQLNSLKPEDTAVYYCAAKTWARGHYGYQARSNYWGQGTQVTVSS | high polyreactivity
QVQLVESGGGLVQAGGSLRLSCAASGRIFPYYVMGWYRQAPGKERELVASISSGGNTNYADSVKGRFTISRDNAKNTVYLQMNSLKPEDTAVYYCAARWRRKGYYWARFDYWGQGTQVTVSS | high polyreactivity

---

experiment: yeast display, Sf9 membrane polyspecificity reagent, FACS + sequencing; frameworks hold sequencing errors
EXPERIMENTAL_ENDPOINT: polyreactivity (PSR sort gate)

QVQLVESGGGLVQAGGSLRLSCAASGRTFKYNAMGWYRQAPGKERELVAVISYDGSTYYADSVKGRFTISRDNAKNTVYLQMNSLKPEDTAVYYCAARYLDVRPYYYWGQGTQVTVSS | high polyreactivity
QVQLVESGGGLVQAGGSLRLSCAASGFTFHQYTMGWYRQAPGKERELVAAISRSGYTNYADSVKGRFTISRDNAKNTVYLQMNSLKPEDTAVYYCNARSTRSRTYQSYDYWGQGTQVTVSS | high polyreactivity
QVQLVESGGGLVQAGGSLRLSCAASGYTFGANVMGWYRQAPGKERELVAAINTRGSRTYYADSVNGRFTISRDNAKNTVYLQMNSLKPEDTAVYYCAAALRKEYDYWGQGTQVTVSS | high polyreactivity
QVQLVESGGGLVQAGGSLRLTCAASGIIFRGYAMGWYRQPPGKERELVAGITSGVRTYYADSVKGRFTISRDNAKNTVYLQMTSLKPEDTAVYYSNADAYGDDWKIYDYWGQGTQVTVSS | low polyreactivity
QVQLVESGGGLVQAGGSLRLSCAASGSTFTPYAMGWYRQAPGKEREFVARISWTGGSTYYADSVKGRFTISRDIAKNTVYLQMNSLKPEDTAVYYCNADRYRWYDHGYYYWGQGTQVTVSS | high polyreactivity

Now take the following sequence into account.
Ask: Recorded polyreactivity (PSR sort gate) for QVQLVESGGGLVQAGGSLRLSCAASGSTFDTYAMGWYRQAPGKERELVAAISVSGTSTSYADSVKGRFTISRDNAKNTVYLQMNSLKPEDTAVYYCNATDFSRNPGYARPEYDYWGQGTQVTVSS , please?
Reply: low polyreactivity

---

assay: yeast display, Sf9 membrane polyspecificity reagent, FACS + sequencing; frameworks hold sequencing errors
EXPERIMENTAL_ENDPOINT: polyreactivity (PSR sort gate)

Example entries and their recorded answers appear below.
QVQLVESGGGLVQAGGSLRLICAASGRIFPSNAMGGSIQAPGKERELVAAINTGGSTYYADSVKGRFTISRDNAKNTVYLQMNSQKPEDTAVYYCAAARRYYYYWGQGTQVTVSS | high polyreactivity
QVQLVESGGGLVQAGGSLRLSCAASGFIFDTYVMGWYRQAPGKERELVAAISRTGGRTYYADSVKGRFTISRDNAKNTVYLQMNSLKPEDTAVYYCAAKVYYPYLFTSYDYWGQGTQVTVSS | high polyreactivity
QVQLVESGGGLVQAGGSLRLSCAASGSTFNGYVMGWYRQAPGKERELVAAISRSGGSTYYADSVKGRFTISRDNAKNTVYLQMYSLKPEDTAVYYCAKGGYQHYWGQGTQVTVSS | high polyreactivity
QVQLVESGGCLVQAGCSLRLSCAASGRIFGYYVMGWYRQAPGKERELVAAIRSSADSTYYADSVKGRFTISRDNAKNTVYLQMNSLKPEDTAVYYCAAQSPAYYTKSYWGQGTQVTVSS | low polyreactivity

Please look at the following sequence next.
Ask: Sample QVQLVESGGGLVQAGASLRLSCASSGFTFGYYTMGWYRQAPGKERELVAAISWSGDSTYYADSVKGRLTISRDNAKNTVYLQMNSLKPEDTAVYYCAAEVYGSWPDYDYSGQGTQVTVSS — what was its polyreactivity (PSR sort gate)?
Reply: low polyreactivity
